// provenance: patent US10941145B2

Entries and their measured EC50 follow.
Biological target: human TLR7 (Homo sapiens)
Sequence (Q9NYK1 27-1049): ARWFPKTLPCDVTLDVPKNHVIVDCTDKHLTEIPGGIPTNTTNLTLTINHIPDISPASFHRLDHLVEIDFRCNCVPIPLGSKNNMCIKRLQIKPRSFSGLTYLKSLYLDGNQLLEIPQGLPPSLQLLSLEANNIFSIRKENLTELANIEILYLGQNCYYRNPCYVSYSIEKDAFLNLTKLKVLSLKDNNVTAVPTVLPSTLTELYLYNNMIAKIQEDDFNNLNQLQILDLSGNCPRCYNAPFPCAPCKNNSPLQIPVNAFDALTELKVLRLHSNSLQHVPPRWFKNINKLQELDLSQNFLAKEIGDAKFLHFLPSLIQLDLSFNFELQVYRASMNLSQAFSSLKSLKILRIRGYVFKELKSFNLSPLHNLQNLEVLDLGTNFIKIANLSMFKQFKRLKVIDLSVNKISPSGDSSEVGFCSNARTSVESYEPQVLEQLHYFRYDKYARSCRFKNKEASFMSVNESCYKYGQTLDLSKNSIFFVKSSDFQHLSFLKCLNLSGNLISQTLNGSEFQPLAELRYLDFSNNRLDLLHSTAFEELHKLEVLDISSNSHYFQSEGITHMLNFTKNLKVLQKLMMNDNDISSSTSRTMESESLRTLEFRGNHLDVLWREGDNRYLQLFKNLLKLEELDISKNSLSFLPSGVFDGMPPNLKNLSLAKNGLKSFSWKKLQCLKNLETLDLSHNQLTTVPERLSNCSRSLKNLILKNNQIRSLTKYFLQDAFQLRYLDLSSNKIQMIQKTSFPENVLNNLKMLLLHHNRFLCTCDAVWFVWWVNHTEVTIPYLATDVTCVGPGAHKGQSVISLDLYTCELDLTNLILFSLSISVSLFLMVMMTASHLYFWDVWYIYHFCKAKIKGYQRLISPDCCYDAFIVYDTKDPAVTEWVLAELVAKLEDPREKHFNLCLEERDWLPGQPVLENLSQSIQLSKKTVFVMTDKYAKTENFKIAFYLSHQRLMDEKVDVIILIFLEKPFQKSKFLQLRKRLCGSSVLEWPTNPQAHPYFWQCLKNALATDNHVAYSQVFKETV
Experiment: HEK-Blue TLR7 reporter assay (TLR7 agonism)
Details: HEK-Blue TLR7 cells, human TLR7-SEAP reporter, 18 h treatment
READOUT: EC50 (nM)

>>> reported_measurement("CCCCOc1nc(N)c2nc(O)n(Cc3ccc4c(c3)nnn4CCNC3CN(C(=O)OC(C)(C)C)C3)c2n1")
113
>>> reported_measurement("CCCCOc1nc(N)c2nc(O)n(Cc3ccc4c(c3)nnn4CCNC3COC3)c2n1")
11
>>> reported_measurement("CCCCOc1nc(N)c2nc(O)n(Cc3ccc4c(c3)nnn4CCNC3CC3)c2n1")
4
>>> reported_measurement("CCCCOc1nc(N)c2nc(O)n(Cc3ccc4c(c3)nnn4CCNCc3ccccc3)c2n1")
24
>>> reported_measurement("CCCCNCCn1nnc2cc(Cn3c(O)nc4c(N)nc(OCCCC)nc43)ccc21")
2.3
>>> reported_measurement("CCCCOc1nc(N)c2nc(O)n(Cc3ccc4c(c3)nnn4CCO)c2n1")
5.4
>>> reported_measurement("CCCCOc1nc(N)c2nc(O)n(Cc3ccc4c(c3)nnn4CCCl)c2n1")
26
>>> reported_measurement("CCCCOc1nc(N)c2nc(O)n(Cc3ccc4c(c3)nnn4CCNCc3ccncc3)c2n1")
7.2
>>> reported_measurement("CCCCOc1nc(N)c2nc(O)n(Cc3ccc4c(c3)nnn4CCNC3CCC3)c2n1")
0.9
>>> reported_measurement("CCCCOc1nc(N)c2nc(O)n(Cc3ccc4c(c3)nnn4CCNCC3COC3)c2n1")
2.4
